System: D. immitis L4 larvae
Test: Dirofilaria immitis, L4 Stage (DiL4) In Vitro Assay
Type: cell-based
Conditions: larval stage selectivity, ratio of DiMf MED to DiL4 MED
MEASUREMENT_TYPE: DiMf/DiL4
Give your answer as a number; write no unit.

[
  {
    "COMPOUND": "CC(C)C[C@H]1C(=O)O[C@H](Cc2ccc(Cc3sccc3Cl)cc2)C(=O)N(C)[C@@H](CC(C)C)C(=O)O[C@H](C)C(=O)N(C)[C@@H](CC(C)C)C(=O)O[C@H](Cc2ccccc2)C(=O)N(C)[C@@H](CC(C)C)C(=O)O[C@H](C)C(=O)N1C [Example 4-75]",
    "STUDY_TARGET": "D. immitis L4 larvae",
    "MEASUREMENT_TYPE": "DiMf/DiL4",
    "MEASURED_NUMBER": 20
  }
]

(Q) Give me measured DiMf/DiL4, please, for this compound: CC(C)C[C@H]1C(=O)O[C@H](Cc2ccc(Cc3cccnc3Br)cc2)C(=O)N(C)[C@@H](CC(C)C)C(=O)O[C@H](C)C(=O)N(C)[C@@H](CC(C)C)C(=O)O[C@H](Cc2ccc(Cc3cccnc3Br)cc2)C(=O)N(C)[C@@H](CC(C)C)C(=O)O[C@H](C)C(=O)N1C [Example 3-329]
(A) 10

(Q) Give me measured DiMf/DiL4, please, for this compound: COc1nc(C)c(Cc2ccc(C[C@H]3OC(=O)[C@H](CC(C)C)N(C)C(=O)[C@@H](C)OC(=O)[C@H](CC(C)C)N(C)C(=O)[C@@H](Cc4ccc(Cc5sc(OC)nc5C)cc4)OC(=O)[C@H](CC(C)C)N(C)C(=O)[C@@H](C)OC(=O)[C@H](CC(C)C)N(C)C3=O)cc2)s1 [Example 3-209]
(A) 20

(Q) Give me measured DiMf/DiL4, please, for this compound: CC(C)C[C@H]1C(=O)O[C@H](Cc2ccc(Cc3cnc(N4CCOCC4)nc3)cc2)C(=O)N(C)[C@@H](CC(C)C)C(=O)O[C@H](C)C(=O)N(C)[C@@H](CC(C)C)C(=O)O[C@H](Cc2ccc(Cc3cnc(N4CCOCC4)nc3)cc2)C(=O)N(C)[C@@H](CC(C)C)C(=O)O[C@H](C)C(=O)N1C [Example 3-178]
(A) 1

(Q) Give me measured DiMf/DiL4, please, for this compound: COc1ccccc1Cc1ccc(C[C@H]2OC(=O)[C@H](CC(C)C)N(C)C(=O)[C@@H](C)OC(=O)[C@H](CC(C)C)N(C)C(=O)[C@@H](Cc3ccc(Cc4ccccc4OC)cc3)OC(=O)[C@H](CC(C)C)N(C)C(=O)[C@@H](C)OC(=O)[C@H](CC(C)C)N(C)C2=O)cc1 [Example 1-11]
(A) 300

(Q) Give me measured DiMf/DiL4, please, for this compound: CC(C)C[C@H]1C(=O)O[C@H](Cc2ccc(Cc3cnsc3)cc2)C(=O)N(C)[C@@H](CC(C)C)C(=O)O[C@H](C)C(=O)N(C)[C@@H](CC(C)C)C(=O)O[C@H](Cc2ccc(Cc3cnsc3)cc2)C(=O)N(C)[C@@H](CC(C)C)C(=O)O[C@H](C)C(=O)N1C [Example 3-254]
(A) 3
